Assay: gradient 5% acetonitrile 3 min, to 50% in 2 min, to 85% in 15 min, held 3 min, 100 µL/min
Details: column: Zorbax Extend-C18 2.1 x 50 mm; eluents: water / acetonitrile, 0.1% formic acid
I'd be grateful if you could share measured RP-LC retention time for these entries.
One number for each entry, in s.

                                   molecule  obs_value
0  CCCNC(=O)NCCC1CCN(S(=O)(=O)c2ccc(C)cc2)CC1        742
1  CCCc1ccc(S(=O)(=O)N2CCc3c(c(-c4nnc(SCC)n4CC)nn3C)C2)cc1       1090
2  CCOC(=O)c1c(C)[nH]c(C(=O)N2CCC(CC(=O)NC3CCCC3)CC2)c1C        720

Okay, here is my list. What is RP-LC retention time for each of these?
1. COc1ccc2[nH]cc(CCNC(=O)C3CCCCC3)c2c1
2. Cc1cc(OCC(=O)Nc2ccccc2Cl)nc(N2CCN(c3ccccc3)CC2)n1
3. COc1ccc(Cl)cc1C(=O)NCC(O)C1CCCCC1 (stereo unspecified)
4. COc1ccc(-c2csc(NC(=O)Cn3nc(C)cc3C)n2)cc1

804
993
863
842

====

Experiment: gradient 5% acetonitrile 3 min, to 50% in 2 min, to 85% in 15 min, held 3 min, 100 µL/min
Conditions: column: Zorbax Extend-C18 2.1 x 50 mm; eluents: water / acetonitrile, 0.1% formic acid
Would you mind telling me the reported RP-LC retention time of each entry?
Answers are plain numbers, in s.

Consider the reported RP-LC retention time for these compounds:
In [3]: df
Out[3]:
                                   compound  u  obs_value
0  Cn1ncc2c3ccccc3n(CC(=O)NCCc3cnc[nH]3)c2c1=O  s        583
1              O=C(CSc1nnc2ccccn12)N1CCOCC1  s        551
2  COc1ccc(Cl)cc1C(=O)Nc1nc2c(s1)Cc1c(Br)ccc(OC)c1-2  s       1350

Batch request: RP-LC retention time per item, same order as input.
1. Cc1ccccc1CNC(=O)C1(C)Oc2cccnc2N(C)C1=O (stereo not given)
2. Cc1c(C(=O)NCCOc2ccc3c(c2)OCO3)cccc1[N+](=O)[O-]
3. CCN1C(=O)COc2cc(-c3noc(C(=O)N4CCN(C)CC4)n3)ccc21
4. COc1ccc(CCN2CCC(CNS(=O)(=O)c3ccc4c(c3)CCCC(=O)N4)CC2)cc1
5. O=C(Cn1nc2n(c1=O)CCCC2)Nc1ccc(F)cc1
6. O=C(NCc1ccc(F)cc1F)c1ccc(OCC(=O)C2CC2)cc1
7. COC(=O)C1=CN(c2ccc(F)cc2)c2ccc(F)cc2S1(=O)=O

1: 786; 2: 778; 3: 616; 4: 628; 5: 651; 6: 784; 7: 847

====

Experiment: gradient 5% acetonitrile 3 min, to 50% in 2 min, to 85% in 15 min, held 3 min, 100 µL/min
Settings: column: Zorbax Extend-C18 2.1 x 50 mm; eluents: water / acetonitrile, 0.1% formic acid
Please go through the items and note down their RP-LC retention time.
The reply should read as a number followed by its unit.

Would you please look over these solved cases?
>>> df
                                   compound  obs_value
0      Cc1c(-c2ccccc2)nc2ccc(Br)cc2c1C(=O)O      698 s
1  O=C(N[C@@H]1CN(Cc2ccc3c(c2)CCO3)C[C@H]1CO)C1CCC1      591 s
2  Cc1ccc(CC(=O)N2CCN(c3cc(-c4ccc(C)cc4)ncn3)CC2)cc1      704 s
3  c1ccc(CCNc2nnc(-c3nc(C4CC4)no3)c3ccccc23)nc1      629 s
4  CCOc1ccc2c(n1)CCN(C(=O)Nc1ccc(C)c(C)c1)C2      900 s
5  O=C(Nc1ccc(F)cc1)C1CCCN(c2nc3ccsc3c(=O)n2Cc2ccc(F)cc2)C1 (centres undefined)      996 s
6  CCN(C(=O)c1cc2c(=O)oc3ccccc3c2n1C)c1ccccc1      919 s
7  COc1ccc(NC(=O)NC2CCN(c3cc(N4CCCC4)cnn3)C2)cc1F (centres undefined)      625 s

Kindly consider the entry below.
Kindly note the recorded RP-LC retention time for O=C(Nc1cccnc1)c1cc(-c2ccnc(F)c2)ccc1OCc1ccccc1 , which is 884 s
